# tested-on: 1000006: catalytic domain of protein tyrosine phosphatase (2G59) (Homo sapiens, UniProt Q16827)
# Construct: the catalytic domain of PTP from H. sapiens (PDB ID: 2G59) (1000006); New York structural genomics consortium (gift)
# Sequence (Q16827 938-1195 limits assumed): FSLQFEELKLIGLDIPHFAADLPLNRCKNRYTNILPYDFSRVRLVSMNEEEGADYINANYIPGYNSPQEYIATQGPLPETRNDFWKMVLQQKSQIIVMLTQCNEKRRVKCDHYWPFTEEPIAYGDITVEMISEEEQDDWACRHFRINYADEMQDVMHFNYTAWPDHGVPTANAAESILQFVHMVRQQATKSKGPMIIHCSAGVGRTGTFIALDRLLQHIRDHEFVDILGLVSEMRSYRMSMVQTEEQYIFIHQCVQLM
# protocol-summary: Thermal shift (thermal melt) assay, Sypro orange
# Format: binding, H. sapiens
# condition-info: Table S6; known binders of 1000001 tested on 1000006; in °C (unit assumed)
endpoint-label: ΔTm

O=C(O)c1cc(O)ccc1N=Nc1ccccc1 ... 0
Cc1ccc(N=Nc2ccc(N)cc2C)c(S(N)(=O)=O)c1 ... 5.48
O=C(O)Cc1ccc(N=Nc2c(O)c(C(=O)O)cc3ccccc23)cc1 ... 5.36
Oc1cccc2nc3ccccc3nc12 ... 4.39
O=S(=O)(O)c1ccc(N=Nc2ccccc2)cc1 ... 0
CCCCC(=O)OCC(=O)[C@]1(O)Cc2c(O)c3c(c(O)c2[C@@H](O[C@H]2C[C@H](NC(=O)C(F)(F)F)[C@H](O)[C@H](C)O2)C1)C(=O)c1c(OC)cccc1C3=O [NSC 246131, valrubicin, reference compound] ... 5.62

I. NS(=O)(=O)c1ccc(N=Nc2c(O)c(C(=O)O)cc3ccccc23)cc1
II. COc1cc(N=Nc2ccccc2C(=O)O)ccc1O
Problem: Which entry has a larger number for ΔTm, I or II ? Mark your selection by writing its label.
Result: II
(II: 5.48, I: 1.36)
